System: ACHN
Assay: NCI tumour cell line growth inhibition, 48 h
Active and inactive are the calls of the source. No stated cut-off is given here; in the data, active = GI50 up to about 1.1 µM and inactive = higher.
Kindly supply the reported GI50 values for the records listed here.

Item CCCCCCCCCCCC1CC(=O)NCCCN(C)CCCCN(C)CCCN1C (stereo unspecified) has what recorded GI50?
1.69 µM (inactive)

Item COC(=O)C1CC2CC1C1C2SC(F)(F)C1(F)F (stereo unspecified) has what recorded GI50?
> 100 µM (inactive)

Item O=C1c2c(n(Cc3ccccc3)c(=O)n2Cc2ccccc2)C(=O)N1Cc1ccccc1 has what recorded GI50?
91.6 µM (inactive)

Item O=C(NCCc1ccccc1)[C@H]1CCCC[C@@H]1CCO has what recorded GI50?
> 100 µM (inactive)

Item O=C(CC1(O)C(=O)Nc2ccccc21)c1ccc2ccccc2c1 (stereo unspecified) has what recorded GI50?
> 100 µM (inactive)

Item C=CCN(C(=O)OC(C)(C)C)[C@H](C)C(=O)N[C@@H](C)C(=O)OC has what recorded GI50?
> 100 µM (inactive)

Item COc1ccc(N2C(=O)C3c4[nH]c5ccccc5c4C4CCCCCCC4C3C2=O)cc1 (stereo unspecified) has what recorded GI50?
6.38 µM (inactive)

Item O=C1/C(=C/c2cccc(Oc3ccccc3)c2)N=C(c2ccccc2)N1c1nc2ccc(Sc3ccccc3)cc2[nH]1 has what recorded GI50?
54.3 µM (inactive)

Item NC(CCC(=O)O)C(=O)NC(Cc1ccc(N(CCCl)CCCl)cc1)C(=O)O (stereo unspecified) has what recorded GI50?
> 100 µM (inactive)

Item COc1ccc(C(=O)N=C2N(c3ccccc3)C(=N/c3ccccc3)/C(=N\c3ccccc3)N2c2ccccc2)cc1 has what recorded GI50?
22.5 µM (inactive)

Item CCO/C(CCn1[nH]c(=O)c(Cl)c(Cl)c1=O)=N\NC(=O)C(=O)NN has what recorded GI50?
> 100 µM (inactive)

Item COc1ccc(C2C3=C(N=C4SC(C(C)=O)=C(C)N42)c2ccccc2CC3)cc1 (stereo unspecified) has what recorded GI50?
> 100 µM (inactive)

Item O=C(O)C1Cc2[nH]cnc2CN1 (stereo unspecified) has what recorded GI50?
> 100 µM (inactive)

Item Oc1ccc2oc3c(O)c4ccccc4cc3c2c1 has what recorded GI50?
2.12 µM (inactive)

Item C(=N\c1ccc(-c2nc3ccccc3[nH]2)cc1)/c1cccs1 has what recorded GI50?
> 100 µM (inactive)

Item Cc1cc(O)c(C(=O)CC2(O)C(=O)Nc3c(Cl)cc(Cl)cc32)c(=O)o1 (stereo unspecified) has what recorded GI50?
> 100 µM (inactive)

Item Cc1cc(C)cc(NC(N)=S)c1 has what recorded GI50?
> 100 µM (inactive)

Item CC1(C)C2CC3C4CC5(Nc6ccccc6C5N41)[C@]3(C)CC2=O (stereo partly specified) has what recorded GI50?
> 50 µM (inactive)

Item CCN(CC)C(=O)N[C@@H](CC(C)C)C(=O)NC has what recorded GI50?
> 100 µM (inactive)

Item COc1ccc(C23OCC(Cc4cc(OC)c(OC)cc42)C3CO)cc1OC (stereo unspecified) has what recorded GI50?
> 100 µM (inactive)

Item C=CCSc1nc2ccccc2c(=O)n1Cc1ccco1 has what recorded GI50?
> 100 µM (inactive)

Item COC(=O)C(=O)C(C(=O)C(=O)Nc1ccc(C)cc1)c1nc2ccc(C(=O)c3ccccc3)cc2nc1O (stereo unspecified) has what recorded GI50?
> 100 µM (inactive)

Item CCCCSC1=N/C(=C\c2ccc(N(C)C)cc2)C(=O)N1 has what recorded GI50?
29.8 µM (inactive)

Item CC1CCC2C(C)C(=O)OC2C2(C)C(=O)C=CC12 (stereo unspecified) has what recorded GI50?
> 10 µM (inactive)

Item O=C(CNCc1ccccc1)Oc1c(Cl)c(Cl)c(Cl)c(Cl)c1Cl has what recorded GI50?
23.1 µM (inactive)

Item Nc1nc(Cl)c(/C=N\O)c(NCC2(CO)CC(=O)C2)n1 has what recorded GI50?
62.1 µM (inactive)

Item CCOC(=O)C1N(S(=O)(=O)c2ccc(C)cc2)CCC12C(c1ccc(OC)cc1)NC1CCCCC12 (stereo unspecified) has what recorded GI50?
> 100 µM (inactive)

Item O=C1Oc2cc(O)cc(/C=C/c3ccc(O)cc3)c2[C@@]12c1c(O)cc(O)cc1OC2c1cccc(O)c1 (stereo partly specified) has what recorded GI50?
52.5 µM (inactive)

Item CCOc1cc(C2SCC(=O)N2c2nc3cc4sc(N5C(=O)CSC5c5ccc(O)c(OCC)c5)nc4cc3s2)ccc1O (stereo unspecified) has what recorded GI50?
> 48.4 µM (inactive)

Item CCOP(=O)(C/C=C/Cn1nc(Br)c(=O)[nH]c1=O)OCC has what recorded GI50?
> 100 µM (inactive)

Item Clc1ccc(Cc2nc3cc(Cl)c(Cl)cc3n2CC2CCCN3CCCCC23)cc1 (stereo unspecified) has what recorded GI50?
10.1 µM (inactive)

Item CCOC(=O)c1nc2ccc(C(F)(F)F)cc2nc1Oc1ccc(C(=O)OC)cc1 has what recorded GI50?
> 100 µM (inactive)

Item CC(C)C1OC2(C)OC(=N)C1(C#N)C(C#N)(C#N)C2C (stereo unspecified) has what recorded GI50?
36 µM (inactive)

Item CSC(=N/C=C/c1ccccc1)SC has what recorded GI50?
> 100 µM (inactive)

Item CC(=O)c1ccc(OCC(O)CO)cc1 (stereo unspecified) has what recorded GI50?
> 100 µM (inactive)

Item CCOP(=O)(OCC)C(C)(CC)N/C(=N\C1=NC(C(F)(F)F)(C(F)(F)F)N=C(C(F)(F)F)O1)NC(NC(C)=O)(C(F)(F)F)C(F)(F)F (stereo unspecified) has what recorded GI50?
28.8 µM (inactive)

Item CS/C1=C(\c2ccc(C)cc2)N(c2ccccc2)C(=O)C(=O)N(c2ccccc2)/C(c2ccc(C)cc2)=C(/SC)SS1 has what recorded GI50?
> 100 µM (inactive)

Item O=C(NN=C(c1ccccc1)c1ccccc1)/C(O)=C/C(=O)c1ccc(Cl)cc1 has what recorded GI50?
37.4 µM (inactive)

Item O=C1C2C3CCC(C2C(=O)N1CO)C1C2C(=O)N(CO)C(=O)C2C31 (stereo unspecified) has what recorded GI50?
> 44.1 µM (inactive)

Item Cc1nc(-c2nc(C)c(C(=O)/C=C/c3ccc([N+](=O)[O-])cc3)s2)sc1C(=O)/C=C/c1ccc([N+](=O)[O-])cc1 has what recorded GI50?
> 100 µM (inactive)

Item CCOC(=O)CCC1(C(=O)OC)CCCC1=O (stereo unspecified) has what recorded GI50?
> 100 µM (inactive)
